// values below are reported pIC50
tested on: P388D1 cells; assay: In vitro cytotoxicity (MTT), P388D1 cells; assay type: cell-based; conditions: Mus musculus, P388D1, 72 h; Table 2; 3 days incubation, MTT; read-out: ID50 (P388 D1)
pIC50: −log10 of the molar value.

| smiles_text | pIC50 |
| --- | --- |
| CCCc1ccc(NC(=O)NCCCl)cc1 | 4.96 |
| CC(C)c1ccc(NC(=O)NCCCl)cc1 | 5.66 |
| CCCCCCCCc1ccc(NC(=O)NCCCl)cc1 | 4.49 |
| CCOc1cccc(NC(=O)NCCCl)c1 | 4.38 |
| CCCCCOc1ccc(NC(=O)NCCCl)cc1 | 4.55 |
| CCc1cccc(NC(=O)NCCCl)c1 | 5.15 |

###

test system: P388D1 cells; test: In vitro cytotoxicity (MTT), P388D1 cells; type: cell-based; conditions: Mus musculus, P388D1, 72 h; Table 2; 3 days incubation, MTT; read-out: ID50 (P388 D1)
pIC50: −log10 of the molar value.
Class Y: pIC50 at least 5. Class N: pIC50 below 5.

| compound | experimental_system | class_label |
| --- | --- | --- |
| CCCCCc1ccc(NC(=O)NCCCl)cc1 | P388D1 cells | Y |
| Cc1ccc(OC(=O)NCCCl)cc1C | P388D1 cells | N |
| CCCCCCOc1ccc(NC(=O)NCCCl)cc1 | P388D1 cells | N |
| O=C(NCCCl)Nc1ccc(C2CCCCC2)cc1 | P388D1 cells | N |
| CCCCCCCc1ccc(NC(=O)NCCCl)cc1 | P388D1 cells | N |
| O=C(NCCCl)Oc1cccc(Cl)c1 | P388D1 cells | Y |
| CCC(C)c1ccc(NC(=O)NCCCl)cc1 (stereo not shown) | P388D1 cells | Y |

###

test system: MDA-MB-231 cells; test: In vitro cytotoxicity (MTT), MDA-MB-231 cells; assay type: cell-based, human; details: Homo sapiens, MDA-MB-231, 72 h; Table 2; 3 days incubation, MTT; read-out: ID50 (MDA-MB-231)
pIC50: −log10 of the molar value.
property_measured: pIC50

| molecule | experimental_system | result_number |
| --- | --- | --- |
| CCCCCCCc1ccc(NC(=O)NCCCl)cc1 [Compound 9] | MDA-MB-231 cells | 4.80 |
| O=C(NCCCl)Oc1ccc([N+](=O)[O-])cc1 [Compound 40] | MDA-MB-231 cells | 5.00 |
| CCSc1ccc(NC(=O)NCCCl)cc1 [Compound 39] | MDA-MB-231 cells | 4.77 |
| CCCCCc1ccc(NC(=O)NCCCl)cc1 [Compound 6] | MDA-MB-231 cells | 5.22 |
| CCCc1ccc(NC(=O)NCCCl)cc1 [Compound 3] | MDA-MB-231 cells | 4.92 |
| O=C(NCCCl)Nc1ccc(C2CCCCC2)cc1 [Compound 8] | MDA-MB-231 cells | 4.54 |
| CCOc1cccc(NC(=O)NCCCl)c1 [Compound 14] | MDA-MB-231 cells | 4.48 |
| CCCCCOc1ccc(NC(=O)NCCCl)cc1 [Compound 15] | MDA-MB-231 cells | 4.66 |
| CCCCCCc1ccc(NC(=O)NCCCl)cc1 [Compound 7] | MDA-MB-231 cells | 5.14 |
| CCC(C)c1ccc(NC(=O)NCCCl)cc1 (centres unmarked) [Compound 5] | MDA-MB-231 cells | 5.66 |
| CCc1cccc(NC(=O)NCCCl)c1 [Compound 2] | MDA-MB-231 cells | 5.11 |
| CCCCCCOc1ccc(NC(=O)NCCCl)cc1 [Compound 16] | MDA-MB-231 cells | 4.66 |
| CC(C)c1ccc(NC(=O)NCCCl)cc1 [Compound 4] | MDA-MB-231 cells | 5.70 |
| O=C(NCCCl)Oc1cccc(Cl)c1 [Compound 63] | MDA-MB-231 cells | 5.07 |
| CCCCCCCCc1ccc(NC(=O)NCCCl)cc1 [Compound 10] | MDA-MB-231 cells | 4.48 |
| Cc1cc(OC(=O)NCCCl)ccc1[N+](=O)[O-] [Compound 47] | MDA-MB-231 cells | 5.12 |
| Cc1ccc(OC(=O)NCCCl)cc1C [Compound 50] | MDA-MB-231 cells | 4.40 |

###

system: P388D1 cells; assay: In vitro cytotoxicity (MTT), P388D1 cells; type: cell-based; details: Mus musculus, P388D1, 72 h; Table 2; 3 days incubation, MTT; read-out: ID50 (P388 D1)
// values below are reported IC50

| compound | IC50 |
| --- | --- |
| CCCCCCc1ccc(NC(=O)NCCCl)cc1 [Compound 7] | 7.9 µM |
| Cc1cc(OC(=O)NCCCl)ccc1[N+](=O)[O-] [Compound 47] | 8 µM |
| O=C(NCCCl)Oc1ccc([N+](=O)[O-])cc1 [Compound 40] | 8.2 µM |
